Hey, just so you know, these numbers are from patent US20170071902A1.

molecular target: NOX (NADPH oxidase) (Homo sapiens); construct: endogenous in cells; host or cells: HL-60 cells differentiated with 1% DMSO, used as a sonicated homogenate supernatant (A1) or as viable cells (A2); assay: NOX activity measurement in a cell-free system using a homogenate of differentiated HL-60 cells (NADPH consumption, fluorometry); format: biochemical; details: Example 4; cell-free system using a homogenate of differentiated HL-60 cells; methoxyflavonoid comparison; read-out: IC50 (μM), NOX inhibitory activity
Sequence (P04839 2-570 limits assumed): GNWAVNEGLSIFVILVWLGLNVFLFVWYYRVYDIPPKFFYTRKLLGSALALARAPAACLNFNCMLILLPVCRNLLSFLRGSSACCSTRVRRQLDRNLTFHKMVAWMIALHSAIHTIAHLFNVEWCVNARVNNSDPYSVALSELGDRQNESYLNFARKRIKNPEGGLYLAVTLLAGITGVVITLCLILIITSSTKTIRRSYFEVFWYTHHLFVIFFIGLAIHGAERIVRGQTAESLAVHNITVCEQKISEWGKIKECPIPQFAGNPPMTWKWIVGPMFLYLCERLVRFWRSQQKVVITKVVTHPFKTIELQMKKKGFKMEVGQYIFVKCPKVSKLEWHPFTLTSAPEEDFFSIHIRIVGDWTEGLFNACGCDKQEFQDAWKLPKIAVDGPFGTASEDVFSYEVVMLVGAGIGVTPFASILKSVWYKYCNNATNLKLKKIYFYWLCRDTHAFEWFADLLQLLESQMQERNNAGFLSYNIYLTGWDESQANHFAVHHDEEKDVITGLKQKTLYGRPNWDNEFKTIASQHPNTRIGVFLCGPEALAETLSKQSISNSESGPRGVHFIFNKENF
Sequence (P13498 2-195 partner limits assumed): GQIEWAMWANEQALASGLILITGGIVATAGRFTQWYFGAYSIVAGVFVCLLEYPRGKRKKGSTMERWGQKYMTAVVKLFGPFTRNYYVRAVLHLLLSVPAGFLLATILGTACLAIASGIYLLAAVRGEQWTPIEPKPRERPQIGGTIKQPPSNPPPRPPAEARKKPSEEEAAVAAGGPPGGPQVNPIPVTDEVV
The following compounds are listed with their measured IC50 values.

These recorded examples may help you get a feel for the data.
COc1ccc(-c2cc(=O)c3ccc(OC)c(OC)c3o2)cc1OC [7,8,3′,4′-Tetramethoxyflavone] ... ~100 µM
COc1cc(OC)c2c(=O)cc(-c3cc(OC)c(OC)c(OC)c3)oc2c1 [5,7,3′,4′,5′-Pentamethoxyflavone] ... > 100 µM
COc1ccc2ccc(=O)oc2c1C(C)=O [8-Acetyl-7-methoxycoumarin] ... > 100 µM
O=c1cc(-c2ccc(O)c(O)c2)oc2ccccc12 [3′,4′-Dihydroxyflavone] ... 75 µM
COc1cc(-c2cc(=O)c3c(OC)c(OC)c(OC)cc3o2)cc(OC)c1OC [5,6,7,3′,4′,5′-Hexamethoxyflavone] ... ~100 µM

What IC50 value was documented for this compound, COc1ccc(-c2cc(=O)c3c(OC)c(OC)c(OC)c(OC)c3o2)cc1OC [5,6,7,8,3′,4′-Hexamethoxyflavone] ? 80 µM

What IC50 value was documented for this compound, O=c1cc(-c2ccc(O)c(O)c2)oc2c(O)c(O)ccc12 [7,8,3′,4′-Tetrahydroxyflavone] ? ~100 µM
